Target: RSV prefusion F (preF), subtype B (respiratory syncytial virus, subtype B)
Experiment: BLI, IgG
recorded-endpoint: Kd (nM)
Report as a plain number; the unit nM is understood.

binder	Kd / nM
ADI-21018 (antibody, V domains shown) VH: EVQLLESGGGLVKPGGSLRLSCAGSGFTLSSYGMNWVRQAPGQGLEWISSISSSSSYINYADSVKGRFTISRDNAQNSLYLQLNSLRAEDTAVYYCARGGLGYDYGLGSYTYADYWGQGTLVTVSS VL: QSVVTQPPSVSGAPGQRVTISCTGSSSNTGAGYDIHWYQQLPGTGPKLLIYGNKNRPSGVPDRFSGSKSGTSASLAITGLQAEDEADYYCQSYDSSLSGWVFGGGTKVTVL	0.366
ADI-20996 (antibody, V domains shown) VH: QVQLVESGPALVKPTQTLTLTCTFSGFSLTTRGMCVSWIRQPPGKALEWLARIDWDDDKYYSTSLKTRLTISKDTSKNQVVLTMTNMDPVDTATYYCARASTLTTAGYYLHYKDVWGNGTTVTVSS VL: DIRMTQSPSSLSASVGDRVTITCRASQSIGTYLNWFQQKPGKAPNLLIYAASILHSGVPSRFSGSGSGTDFTLTIRTLQPEDFATYYCQQSYPTVTFGQGTKVEIK	1.06

get_value(item= ADI-14607 (antibody, V domains shown) VH: EVQLLESGGGVVQSGRSLRLSCAASGFTFNNYAMHWVRQAPGKGLEWVAVISFDGGNKFYGDSVQGRFTISRDNSKNTLYLQTNSLRPEDTAVYYCARDRWEIQIGLDIWGQGTTVTVSS VL: SYVLTQPPSVSVSPGQTARITCSGDALARQNAYWYQQKPGQAPVLVMYRDTGRPSGIPERFSGSSSGTTVTLTISEVQAEDEADYYCQSADSSGAYVFGTGTKVTVL , readout=Kd) returns 0.64
